TARGET OR SYSTEM: Neurogenic locus notch homolog protein 3 (Homo sapiens) (UniProt Q9UM47)
Sequence (Q9UM47 whole entry, looked up): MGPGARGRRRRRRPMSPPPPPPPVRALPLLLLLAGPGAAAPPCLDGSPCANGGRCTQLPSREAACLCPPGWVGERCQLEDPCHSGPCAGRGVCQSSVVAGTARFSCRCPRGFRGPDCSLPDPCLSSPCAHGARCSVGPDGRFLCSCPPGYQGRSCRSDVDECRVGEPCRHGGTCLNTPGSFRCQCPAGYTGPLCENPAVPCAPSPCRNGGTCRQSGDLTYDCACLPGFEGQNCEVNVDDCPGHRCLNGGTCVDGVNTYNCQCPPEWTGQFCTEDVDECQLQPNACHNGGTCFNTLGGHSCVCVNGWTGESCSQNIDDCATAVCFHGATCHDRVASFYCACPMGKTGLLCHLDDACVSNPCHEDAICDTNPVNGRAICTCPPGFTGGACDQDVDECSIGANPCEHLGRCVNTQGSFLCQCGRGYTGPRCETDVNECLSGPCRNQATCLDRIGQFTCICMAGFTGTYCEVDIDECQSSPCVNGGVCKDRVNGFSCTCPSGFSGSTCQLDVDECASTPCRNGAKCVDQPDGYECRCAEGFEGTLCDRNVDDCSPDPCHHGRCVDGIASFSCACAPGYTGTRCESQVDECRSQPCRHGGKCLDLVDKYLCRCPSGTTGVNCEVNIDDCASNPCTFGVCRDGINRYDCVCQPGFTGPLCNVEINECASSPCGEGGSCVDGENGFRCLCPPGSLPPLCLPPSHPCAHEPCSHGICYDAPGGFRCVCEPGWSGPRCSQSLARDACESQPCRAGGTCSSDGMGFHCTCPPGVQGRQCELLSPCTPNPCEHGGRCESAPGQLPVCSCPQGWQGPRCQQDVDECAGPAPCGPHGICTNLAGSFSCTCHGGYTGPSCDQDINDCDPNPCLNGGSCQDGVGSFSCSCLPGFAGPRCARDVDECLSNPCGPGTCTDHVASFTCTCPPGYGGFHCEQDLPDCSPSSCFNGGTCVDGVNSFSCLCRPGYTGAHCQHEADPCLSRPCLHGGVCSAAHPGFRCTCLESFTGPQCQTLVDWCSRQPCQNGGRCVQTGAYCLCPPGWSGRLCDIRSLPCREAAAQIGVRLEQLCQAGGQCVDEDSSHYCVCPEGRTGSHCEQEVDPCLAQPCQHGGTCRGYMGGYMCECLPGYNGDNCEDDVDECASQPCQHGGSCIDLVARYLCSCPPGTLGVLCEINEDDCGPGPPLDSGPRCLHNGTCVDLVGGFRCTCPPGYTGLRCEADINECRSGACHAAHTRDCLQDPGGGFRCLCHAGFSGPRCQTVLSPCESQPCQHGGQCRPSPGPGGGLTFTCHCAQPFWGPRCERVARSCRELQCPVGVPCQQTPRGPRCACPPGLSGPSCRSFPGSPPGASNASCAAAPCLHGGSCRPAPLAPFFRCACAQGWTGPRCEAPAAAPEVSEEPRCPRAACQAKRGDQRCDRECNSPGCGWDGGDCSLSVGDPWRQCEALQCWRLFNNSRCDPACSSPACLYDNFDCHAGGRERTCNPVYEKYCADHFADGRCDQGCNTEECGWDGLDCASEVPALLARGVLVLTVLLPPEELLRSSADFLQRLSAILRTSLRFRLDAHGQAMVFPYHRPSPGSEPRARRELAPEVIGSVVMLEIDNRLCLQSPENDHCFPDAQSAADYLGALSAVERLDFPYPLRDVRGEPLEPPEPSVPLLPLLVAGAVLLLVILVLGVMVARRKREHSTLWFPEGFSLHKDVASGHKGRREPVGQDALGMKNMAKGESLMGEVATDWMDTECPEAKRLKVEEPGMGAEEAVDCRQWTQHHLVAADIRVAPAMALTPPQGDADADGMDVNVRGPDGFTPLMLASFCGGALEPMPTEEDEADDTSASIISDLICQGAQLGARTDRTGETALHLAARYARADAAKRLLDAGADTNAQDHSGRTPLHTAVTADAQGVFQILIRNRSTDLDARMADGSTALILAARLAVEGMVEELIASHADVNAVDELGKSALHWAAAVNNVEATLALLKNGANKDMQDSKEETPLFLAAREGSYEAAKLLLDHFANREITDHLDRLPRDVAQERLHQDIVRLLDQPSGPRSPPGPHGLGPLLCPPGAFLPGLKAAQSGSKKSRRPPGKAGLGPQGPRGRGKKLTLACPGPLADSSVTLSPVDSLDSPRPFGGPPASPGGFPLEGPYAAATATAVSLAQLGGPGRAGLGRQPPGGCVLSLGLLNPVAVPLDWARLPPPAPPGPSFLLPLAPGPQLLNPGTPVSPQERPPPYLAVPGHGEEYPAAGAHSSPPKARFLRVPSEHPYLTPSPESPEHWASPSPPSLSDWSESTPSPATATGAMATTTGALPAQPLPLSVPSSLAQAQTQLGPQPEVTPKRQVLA
EXPERIMENT NOTES: NOTCH3 binders on small-molecule microarray, primary screen, biochemical, 635/667 nm fluorescence (AID 1096)
CONDITION: NOTCH3 binding, 635 nm fluorescence, higher = more signal
Label 1 when composite z-score >= 0.7; otherwise -1.

{"columns": ["COMPOUND", "TARGET OR SYSTEM", "ASSIGNED CATEGORY"],
 "data": [
  ["CCCNC(=O)[C@@H]1c2ccccc2C(=O)N(C2CCCCC2)[C@H]1c1ccc(CO)cc1", "Neurogenic locus notch homolog protein 3 (Homo sapiens) (UniProt Q9UM47)", 1],
  ["O=C(NCC(F)(F)F)[C@@H]1c2ccccc2C(=O)N(Cc2ccccc2Cl)[C@H]1c1ccc(CO)cc1", "Neurogenic locus notch homolog protein 3 (Homo sapiens) (UniProt Q9UM47)", -1],
  ["COC(=O)[C@@]1(Cc2ccc(OC)cc2)[C@H]2c3cc(C(=O)N(C)C)n(Cc4ccc(C)c(F)c4F)c3C[C@H]2CN1C(=O)c1ccccc1", "Neurogenic locus notch homolog protein 3 (Homo sapiens) (UniProt Q9UM47)", 1]
]}

Task: Determine whether this compound has composite z-score no lower than 0.7: COC(=O)C[C@H]1O[C@]2(C(=O)N(C)c3ccccc32)[C@@H](C)[C@@H]1[Si](C)(C)c1ccc(OC)cc1
Result: -1

Task: Determine whether this compound has composite z-score no lower than 0.7: [N-]=[N+]=NCc1ccccc1[C@H]1OC(c2ccc(OCCCO)cc2)=N[C@@]1(Cc1ccccc1N=[N+]=[N-])C(=O)NCc1ccccc1
Result: 1

Task: Determine whether this compound has composite z-score no lower than 0.7: C=CCN(C(=O)C1N(c2ccc(CCO)cc2)C(=O)C2C(C(=O)O)C3C=CC21O3)C(C)(C)C (centres undefined)
Result: -1

Task: Determine whether this compound has composite z-score no lower than 0.7: CCOC(=O)C[C@H]1[C@H](OC(=O)c2ccccc2-c2ccccc2)[C@@H](NC(=O)C2CCCCC2)c2cc(OCCCO)ccc2N1C(=O)c1ccccc1
Result: -1

Task: Determine whether this compound has composite z-score no lower than 0.7: Cc1ccc([C@@H]2CC=C(C(=O)O)[C@H](c3ccccc3)N2S(=O)(=O)c2ccc(C)cc2)cc1
Result: -1
